molecular target: BACE1 in primary mouse cortical neurons (mouse, UniProt P56818 46-501); assay: cell-based or functional assay
Sequence (P56818 46-501): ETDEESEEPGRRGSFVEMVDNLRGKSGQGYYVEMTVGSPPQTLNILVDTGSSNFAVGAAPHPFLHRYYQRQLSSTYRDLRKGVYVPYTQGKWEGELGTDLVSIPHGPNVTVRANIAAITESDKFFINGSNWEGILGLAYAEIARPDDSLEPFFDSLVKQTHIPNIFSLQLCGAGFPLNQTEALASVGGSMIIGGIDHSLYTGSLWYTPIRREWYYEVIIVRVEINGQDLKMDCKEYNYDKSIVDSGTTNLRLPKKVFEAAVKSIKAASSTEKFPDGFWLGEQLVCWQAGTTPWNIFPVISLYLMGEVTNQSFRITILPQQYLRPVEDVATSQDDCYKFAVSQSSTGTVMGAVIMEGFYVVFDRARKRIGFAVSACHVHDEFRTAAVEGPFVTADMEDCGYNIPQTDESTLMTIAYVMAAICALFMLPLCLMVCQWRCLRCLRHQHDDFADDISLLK
measurement-type: IC50, Abeta x-40 in mouse cortical neurons (nM)
# unit: nM | format: bare number

- binder: "6272 (antibody, V domains shown, anti-BACE1 IgG) VH: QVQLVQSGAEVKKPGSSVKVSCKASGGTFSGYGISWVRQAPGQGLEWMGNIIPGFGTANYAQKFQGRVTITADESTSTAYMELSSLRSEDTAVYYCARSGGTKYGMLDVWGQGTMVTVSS VL: EIVMTQSPATLSVSPGERATLSCRASQSVSSNLAWYQQKPGQAPRLLIYGASTRATGIPARFSGSGSGTEFTLTISSLQSEDFAVYYCQQLFLWPPRTFGGGTKVEIK"
  readout-unit: "nM"
  readout-number: 43.6

# next binder below
Query: So what's the measured IC50, Abeta x-40 in mouse cortical neurons for this one? 6285 (antibody, V domains shown, anti-BACE1 IgG) VH: QLQLQESGPGLVKPSETLSLTCTVSGGSTSSSSYYWGWIRQPPGKGLEWIGSIYRSGSTYYNPSLKSRVTISVDTSKNQFSLKLSSVTAADTAVYYCARVGHGISYFDLWGRGTLVTVSS VL: EIVLTQSPATLSLSPGERATLSCRASQSVSSYLAWYQQKPGQAPRLLIYDASSRATGIPARFSGSGSGTDFTLTISSLEPEDFAVYYCQQSLTWPPRTFGGGTKVEIK
Reply: 15.4
